biological target: Tie-2 (Homo sapiens, UniProt Q02763)
Sequence (Q02763 23-1124): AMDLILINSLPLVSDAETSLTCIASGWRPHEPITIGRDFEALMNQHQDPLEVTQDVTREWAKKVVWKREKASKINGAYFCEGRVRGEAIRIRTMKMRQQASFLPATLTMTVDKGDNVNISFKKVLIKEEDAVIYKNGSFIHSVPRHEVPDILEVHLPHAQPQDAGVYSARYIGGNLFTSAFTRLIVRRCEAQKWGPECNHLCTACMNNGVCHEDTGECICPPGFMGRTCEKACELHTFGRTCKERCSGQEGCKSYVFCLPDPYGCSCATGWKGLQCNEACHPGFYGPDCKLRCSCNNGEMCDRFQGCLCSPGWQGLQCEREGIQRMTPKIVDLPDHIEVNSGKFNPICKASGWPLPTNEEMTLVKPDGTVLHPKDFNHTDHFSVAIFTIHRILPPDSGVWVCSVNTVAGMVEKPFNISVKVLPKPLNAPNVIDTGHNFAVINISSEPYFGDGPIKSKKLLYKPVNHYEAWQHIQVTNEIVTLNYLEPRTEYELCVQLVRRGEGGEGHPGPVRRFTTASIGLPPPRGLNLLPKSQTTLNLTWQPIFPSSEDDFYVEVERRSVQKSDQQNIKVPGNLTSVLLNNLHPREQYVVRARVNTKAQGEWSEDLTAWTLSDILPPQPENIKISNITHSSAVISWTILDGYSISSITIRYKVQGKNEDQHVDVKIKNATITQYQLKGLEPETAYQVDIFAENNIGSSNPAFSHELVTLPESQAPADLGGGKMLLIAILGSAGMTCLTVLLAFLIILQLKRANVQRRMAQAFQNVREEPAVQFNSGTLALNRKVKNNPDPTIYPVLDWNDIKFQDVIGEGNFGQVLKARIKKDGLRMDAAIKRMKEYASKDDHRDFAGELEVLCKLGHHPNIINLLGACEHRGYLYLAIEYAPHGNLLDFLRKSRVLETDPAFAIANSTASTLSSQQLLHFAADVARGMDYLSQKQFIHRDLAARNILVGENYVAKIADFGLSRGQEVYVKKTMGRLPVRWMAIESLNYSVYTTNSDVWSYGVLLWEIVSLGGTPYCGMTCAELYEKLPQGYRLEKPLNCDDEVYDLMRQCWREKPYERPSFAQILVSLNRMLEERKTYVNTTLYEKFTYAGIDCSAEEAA
pIC50: −log10 of the molar value.
quantity_measured: pIC50

Would you mind telling me what pIC50 value was observed for OCCNc1nc(-c2ccncc2)nc2ccccc12 [Compound 5] ?
≤ 5.00

Which measured pIC50 value corresponds to OC[C@H](Nc1nc(-c2ccncc2)nc2ccccc12)c1ccccc1 [Compound 56] ?
5.00 to 6.00

Bench note: what pIC50 did c1ccc2c(NC3CCCC3)nc(-c3ccncc3)nc2c1 [Compound 3] show?
5.00 to 6.00

---

Values of IC50 reported for Tie-2 (Homo sapiens, UniProt Q02763) appear below.

Reference set (3 entries):
[
  {
    "entry_smiles": "Oc1ccc(N2CCN(c3nc(-c4ccncc4)nc4ccccc34)CC2)cc1",
    "result": "≥ 10 µM"
  },
  {
    "entry_smiles": "c1ccc(Nc2ccc(Nc3nc(-c4ccncc4)nc4ccccc34)cc2)cc1",
    "result": "≥ 10 µM"
  },
  {
    "entry_smiles": "CCc1cc(-c2nc(N[C@@H]3c4ccccc4C[C@@H]3O)c3ccccc3n2)ccn1",
    "result": "≥ 10 µM"
  }
]

Consider now this further molecule.
Query for Tie-2 (Homo sapiens, UniProt Q02763): what IC50 does the record show for Nc1ccncc1-c1nc(N[C@H]2c3ccccc3C[C@H]2O)c2ccccc2n1 ?
≥ 10 µM

---

A short record of pIC50 observed with Tie-2 (Homo sapiens) follows.
pIC50: −log10 of the molar value.

[
  {
    "compound": "COc1cc(OC)c(CNc2nc(-c3ccncc3)nc3ccccc23)c(OC)c1",
    "result": "≤ 5.00"
  },
  {
    "compound": "OC[C@@H]1Cc2ccccc2N1c1nc(-c2ccncc2)nc2ccccc12",
    "result": "≤ 5.00"
  },
  {
    "compound": "COc1ncc(-c2nc(N[C@H]3c4ccccc4C[C@H]3O)c3ccccc3n2)c(OC)n1",
    "result": "≤ 5.00"
  }
]

Kindly state the measured pIC50 obtained for O[C@H]1Cc2ccccc2[C@H]1Nc1nc(-c2cccnc2)nc2ccccc12 with Tie-2 (Homo sapiens).
≤ 5.00

Kindly state the measured pIC50 obtained for COc1cc2nc(-c3ccncc3)nc(N[C@H]3c4ccccc4C[C@H]3O)c2cc1OC with Tie-2 (Homo sapiens).
6.00 to 7.30

---

Record: pIC50 reported on Tie-2 (Homo sapiens).
pIC50: −log10 of the molar value.

Query the reported pIC50 for Tie-2 (Homo sapiens); item: OCCN(Cc1ccccc1)c1nc(-c2ccncc2)nc2ccccc12
5.00 to 6.00

Record lookup: for Tie-2 (Homo sapiens), what pIC50 belongs to c1ccc2c(c1)CC[C@@H](Nc1nc(-c3ccncc3)nc3ccccc13)C2 ?
6.00 to 7.30

Lookup: pIC50 / Tie-2 (Homo sapiens) / O[C@H]1Cc2ccccc2[C@H]1Nc1nc(-c2ccccc2)nc2ccccc12
≤ 5.00

Query the reported pIC50 for Tie-2 (Homo sapiens); item: c1ccc2c(c1)CC[C@H]2Cc1nc(-c2ccncc2)nc2ccccc12
5.00 to 6.00

Could you share what pIC50 was measured for O[C@H]1Cc2ccccc2[C@H]1Nc1nc(-c2ccncc2)nc2ccccc12 , tested on Tie-2 (Homo sapiens)?
≤ 5.00

---

Lab note: pIC50 readings collected with Tie-2 (Homo sapiens) for the following molecules.
pIC50: −log10 of the molar value.

Completed entries (count: 2):
[
  {
    "molecule": "OC1CCCN(c2nc(-c3ccncc3)nc3ccccc23)C1 (stereo not drawn)",
    "pIC50": "≤ 5.00"
  },
  {
    "molecule": "O[C@@H]1Cc2ccccc2[C@@H]1Nc1nc(-c2ccccc2)nc2ccccc12",
    "pIC50": "≤ 5.00"
  }
]

# get_value(readout= pIC50, system= Tie-2 (Homo sapiens)) for CC(C)(C)OC(=O)N1CCN(c2nc(-c3ccncc3)nc3ccccc23)CC1
≤ 5.00

Form field: pIC50 recorded for c1ccc2c(c1)CCC2Nc1nc(-c2ccncc2)nc2ccccc12 (stereo not drawn) with Tie-2 (Homo sapiens) (enter value)
6.00 to 7.30

Request - read-out pIC50 | tested on Tie-2 (Homo sapiens) | molecule O[C@@H]1Cc2ccccc2[C@@H]1Nc1nc(-c2cccnc2)nc2ccccc12
5.00 to 6.00

Under Tie-2 (Homo sapiens): pIC50 value of OCCN1CCN(Nc2nc(-c3ccncc3)nc3ccccc23)CC1 ?
≤ 5.00
